# System: Mycolicibacterium smegmatis
# measurement description: Antitubercular activity against Mycobacterium smegmatis ATCC 19420 after 7 days by resazurin assay
# Assay type: functional
# test parameters: ATCC 19420, 168 h
reported metric: MIC (µg/mL)
Numbers only, in µg/mL.

The cases that follow already have their MIC on record.
{"compound": "Nc1nc(COC(=O)Cc2cccc(C(F)(F)F)c2)cs1", "MIC / µg/mL": 10}
{"compound": "Nc1nc(COC(=O)c2cccc([N+](=O)[O-])c2Cl)cs1", "MIC / µg/mL": 1}
{"compound": "N#CCCc1cccc(C(=O)OCc2csc(N)n2)c1", "MIC / µg/mL": 1}
{"compound": "Nc1nc(COC(=O)c2ccc([N+](=O)[O-])cc2)cs1", "MIC / µg/mL": 10}
{"compound": "Nc1nc(COC(=O)c2ccc(Br)cc2)cs1", "MIC / µg/mL": 2.5}
{"compound": "CO[C@H]1/C=C/O[C@@]2(C)Oc3c(C)c(O)c4c(O)c(c(/C=N/N5CCN(C)CC5)c(O)c4c3C2=O)NC(=O)/C(C)=C\\C=C\\[C@H](C)[C@H](O)[C@@H](C)[C@@H](O)[C@@H](C)[C@H](OC(C)=O)[C@@H]1C [RIFAMPIN]", "MIC / µg/mL": 1.5}

Exam item: Identify MIC associated with the compound "Nc1nc(COC(=O)c2c(F)cc(F)cc2F)cs1"
Marked response: 10

====

# Test system: Staphylococcus aureus
# measurement description: Antibacterial activity against Staphylococcus aureus ATCC 25923 at […] after 3 to 4 days
# Type: functional
reported metric: diameter of the inhibition zone (DIZ) (mm)
Numbers only, in mm.

The cases that follow already have their diameter of the inhibition zone (DIZ) on record.
{"line notation": "Nc1nc(COC(=O)c2c(F)cccc2Cl)cs1", "unit of measurement": "mm", "diameter of the inhibition zone (DIZ)": 16}
{"line notation": "Nc1nc(COC(=O)C2(c3ccc(Cl)cc3)CC2)cs1", "unit of measurement": "mm", "diameter of the inhibition zone (DIZ)": 11}
{"line notation": "Nc1nc(COC(=O)c2cccs2)cs1", "unit of measurement": "mm", "diameter of the inhibition zone (DIZ)": 11}
{"line notation": "O=C(O)c1cn(C2CC2)c2cc(N3CCNCC3)c(F)cc2c1=O", "unit of measurement": "mm", "diameter of the inhibition zone (DIZ)": 22}

Switching to the query record.
Exam item: Quote diameter of the inhibition zone (DIZ) with test system Staphylococcus aureus for "Nc1nc(COC(=O)c2ccc(Cl)cc2)cs1"
Marked response: 16

====

# System: Klebsiella pneumoniae
# measurement description: Antibacterial activity against Klebsiella pneumoniae at MIC after 3 to 4 days
# Assay type: functional
reported metric: diameter of the inhibition zone (DIZ) (mm)
Numbers only, in mm.

The cases that follow already have their diameter of the inhibition zone (DIZ) on record.
{"compound": "N#Cc1ccc(C(=O)OCc2csc(N)n2)cn1", "number": 16}
{"compound": "Nc1nc(COC(=O)C2(c3ccc(Cl)cc3)CC2)cs1", "number": 16}
{"compound": "Nc1nc(COC(=O)c2c(Cl)cc(Cl)cc2Cl)cs1", "number": 11}
{"compound": "N#Cc1ccccc1C(=O)OCc1csc(N)n1", "number": 11}
{"compound": "O=C(O)c1cn(C2CC2)c2cc(N3CCNCC3)c(F)cc2c1=O [CIPROFLOXACIN]", "number": 23}

Record diameter of the inhibition zone (DIZ) per entry; entries follow.
1. Nc1nc(COC(=O)c2ccc3ccccc3c2)cs1
2. Nc1nc(COC(=O)c2ccccc2)cs1
3. Nc1nc(COC(=O)c2c(F)cccc2Cl)cs1
4. Nc1nc(COC(=O)c2ccco2)cs1
5. N#CCCc1cccc(C(=O)OCc2csc(N)n2)c1
6. Nc1nc(COC(=O)c2ccc(Cl)cc2)cs1
7. Nc1nc(COC(=O)c2ccccc2[N+](=O)[O-])cs1

Marked response:
16
16
11
16
11
16
16

====

Would you kindly list diameter of the inhibition zone (DIZ) for each of these compounds?
# Test system: Klebsiella pneumoniae
# measurement description: Antibacterial activity against Klebsiella pneumoniae at MIC after 3 to 4 days
# Format: functional
One number for each entry, in mm.

{"line notation": "Nc1nc(COC(=O)c2cccc([N+](=O)[O-])c2Cl)cs1", "assay system": "Klebsiella pneumoniae", "diameter of the inhibition zone (DIZ) [mm]": 16}
{"line notation": "Nc1nc(COC(=O)Cc2cccc(C(F)(F)F)c2)cs1", "assay system": "Klebsiella pneumoniae", "diameter of the inhibition zone (DIZ) [mm]": 11}
{"line notation": "Nc1nc(COC(=O)c2ccc(Br)cc2)cs1", "assay system": "Klebsiella pneumoniae", "diameter of the inhibition zone (DIZ) [mm]": 16}

Exam item: Identify diameter of the inhibition zone (DIZ) associated with the compound "Nc1nc(COC(=O)c2ccc([N+](=O)[O-])cc2)cs1"
Marked response: 16

====

Would you kindly list MIC for each of these compounds?
# System: Staphylococcus aureus
# measurement description: Antibacterial activity against Staphylococcus aureus ATCC 25923 after 16 to 18 hrs by serial plate dilution method
# Assay type: functional
One number for each entry, in µg/mL.

The cases that follow already have their MIC on record.
{"line notation": "Nc1nc(COC(=O)c2ccccc2)cs1", "assay system": "Staphylococcus aureus", "reported metric": "MIC", "number": 6.25}
{"line notation": "Nc1nc(COC(=O)C2(c3ccc(Cl)cc3)CC2)cs1", "assay system": "Staphylococcus aureus", "reported metric": "MIC", "number": 12.5}

Record MIC per entry; entries follow.
1. Nc1nc(COC(=O)c2ccccc2[N+](=O)[O-])cs1
2. Nc1nc(COC(=O)c2ccc(Cl)cc2)cs1
3. Nc1nc(COC(=O)c2ccc(Br)cc2)cs1
4. Nc1nc(COC(=O)c2cc(F)cc(C(F)(F)F)c2)cs1
5. Nc1nc(COC(=O)c2c(F)cccc2Cl)cs1

Marked response:
1. 12.5
2. 6.25
3. 25
4. 12.5
5. 6.25

====

# Tested on: Klebsiella pneumoniae
# measurement description: Antibacterial activity against Klebsiella pneumoniae after 16 to 18 hrs by […]
# Format: functional
Would you kindly list MIC for each of these compounds?
Give bare numbers, in µg/mL.

{"line notation": "Nc1nc(COC(=O)C2(c3ccc(Cl)cc3)CC2)cs1", "number": 6.25}
{"line notation": "N#CCCc1cccc(C(=O)OCc2csc(N)n2)c1", "number": 12.5}
{"line notation": "Nc1nc(COC(=O)Cc2cccc(C(F)(F)F)c2)cs1", "number": 12.5}
{"line notation": "Nc1nc(COC(=O)c2c(F)cccc2Cl)cs1", "number": 12.5}

Record MIC per entry; entries follow.
1. Nc1nc(COC(=O)c2ccc([N+](=O)[O-])cc2)cs1
2. O=C(O)c1cn(C2CC2)c2cc(N3CCNCC3)c(F)cc2c1=O
3. Nc1nc(COC(=O)Cc2ccccc2OC(F)(F)F)cs1
4. Nc1nc(COC(=O)c2ccc(Br)cc2)cs1

Marked response:
6.25
6.25
25
6.25

====

# Tested on: Mycolicibacterium smegmatis
# measurement description: Antitubercular activity against Mycobacterium smegmatis ATCC 19420 after 7 days by resazurin assay
# Assay type: functional
# test parameters: ATCC 19420, 168 h
Would you kindly list MIC for each of these molecules?
Give bare numbers, in µg/mL.

The cases that follow already have their MIC on record.
{"molecule": "Nc1nc(COC(=O)c2ccc3ccccc3c2)cs1", "number": 10}
{"molecule": "Nc1nc(COC(=O)c2ccccc2[N+](=O)[O-])cs1", "number": 10}
{"molecule": "Nc1nc(COC(=O)c2c(F)cccc2Cl)cs1", "number": 10}
{"molecule": "Nc1nc(COC(=O)c2cccs2)cs1", "number": 10}
{"molecule": "NNC(=O)c1ccncc1 [ISONIAZID]", "number": 50}

Exam item: Identify MIC associated with the molecule "Nc1nc(COC(=O)C2(c3ccc(Cl)cc3)CC2)cs1"
Marked response: 1

====

# Tested on: Escherichia coli
# measurement description: Antibacterial activity against Escherichia coli ATCC 25922 after 16 to 18 hrs by […]
# Type: functional
reported metric: MIC (µg/mL)
Answers are plain numbers, in µg/mL.

The cases that follow already have their MIC on record.
{"line notation": "N#CCCc1cccc(C(=O)OCc2csc(N)n2)c1", "number": 6.25}
{"line notation": "N#Cc1ccc(C(=O)OCc2csc(N)n2)cn1", "number": 6.25}
{"line notation": "Nc1nc(COC(=O)c2c(Cl)cc(Cl)cc2Cl)cs1", "number": 25}
{"line notation": "Nc1nc(COC(=O)c2ccc(Cl)cc2)cs1", "number": 6.25}
{"line notation": "Nc1nc(COC(=O)Cc2cccc(C(F)(F)F)c2)cs1", "number": 6.25}
{"line notation": "Nc1nc(COC(=O)c2ccc3ccccc3c2)cs1", "number": 6.25}

Switching to the query record.
Exam item: Identify MIC associated with the compound "Nc1nc(COC(=O)c2cccc([N+](=O)[O-])c2Cl)cs1"
Marked response: 12.5
